# Assay System: CA IX (Homo sapiens, UniProt Q16790)
pKd: −log10 of the molar value.
Cut-off 7 on pKd, inclusive. At or above means met; below means not met.

Task: For this compound, is measured pKd 7 or higher? NS(=O)(=O)c1ccccc1Cl [Compound 1, 2-chloro-benzenesulfonamide]
Output: not met

Task: For this compound, is measured pKd 7 or higher? NS(=O)(=O)c1cc2c(cc1C(F)(F)F)NCNS2(=O)=O [Compound 10, hydroflumethiazide]
Output: not met

Task: For this compound, is measured pKd 7 or higher? CCC1NC(=O)c2cc(S(N)(=O)=O)c(Cl)cc2N1 (centres unmarked)
Output: not met

Task: For this compound, is measured pKd 7 or higher? NS(=O)(=O)c1cc2c(cc1Cl)CN(C1CCCCC1)C2=O [Compound 17, Clorexolone]
Output: met

Task: For this compound, is measured pKd 7 or higher? C[C@@H]1CCC[C@H](C)N1NC(=O)c1ccc(Cl)c(S(N)(=O)=O)c1 [Compound 13, clopamide]
Output: not met

Task: For this compound, is measured pKd 7 or higher? NS(=O)(=O)c1cc(C2(O)NC(=O)c3ccccc32)ccc1Cl (centres unmarked)
Output: met

Task: For this compound, is measured pKd 7 or higher? NS(=O)(=O)c1cc2c(cc1C(F)(F)F)NC(Cc1ccccc1)NS2(=O)=O (centres unmarked) [Compound 11, bendroflumethiazide]
Output: not met

Task: For this compound, is measured pKd 7 or higher? NS(=O)(=O)c1cc2c(cc1Cl)N=C(CSCc1ccccc1)NS2(=O)=O [Compound 8, benzthiazide]
Output: met

Task: For this compound, is measured pKd 7 or higher? NS(=O)(=O)c1cc2c(cc1Cl)NCNS2(=O)=O [Compound 4, hydrochlorothiazide]
Output: not met

Task: For this compound, is measured pKd 7 or higher? NS(=O)(=O)c1cc2c(cc1Cl)NC(c1ccccc1)NC2=O (centres unmarked)
Output: not met

Task: For this compound, is measured pKd 7 or higher? Cc1ccccc1N1C(=O)c2cc(S(N)(=O)=O)c(Cl)cc2NC1C (centres unmarked)
Output: not met

Task: For this compound, is measured pKd 7 or higher? Cc1cccc(C)c1NC(=O)c1cc(S(N)(=O)=O)c(Cl)cc1O [Compound 14, xipamide]
Output: not met
